Test system: Vero E6
Experiment: cell viability relative to DMSO; higher = less toxic
Settings: 72 h; 1 nM
Reported values of cell viability for individual entries
Report only the number, with the unit % understood.

Return reported cell viability; argument: `Fc1ccc(CN2CCC(Nc3ccc(C(F)(F)F)nn3)CC2)cc1F`
90.3

`O=C(O)c1ccc(N2C(=O)/C(=C/c3ccc(-c4ccc([N+](=O)[O-])cc4)o3)C=C2c2ccccc2)cc1` , same question.
98.1

`CN1CCN2c3c(cccc31)[C@@H]1CN(CCCC(=O)c3ccc(F)cc3)CC[C@@H]12` , same question.
98.4

`c1ccc(COCCCc2c[nH]cn2)cc1` , same question.
96.9

`CCOC(=O)[N-]c1c[n+](N2CCOCC2)no1` , same question.
92.1

`C#Cc1cccc(Nc2ncnc3cc(OCCOC)c(OCCO)cc23)c1` , same question.
103

`O=[N+]([O-])c1c(Nc2cc(F)cc(Cl)c2)ccc2nonc12` , same question.
102

Cc1ccc2c(c1)=C(c1ccccc1)C(C1=NN(C(=O)CCC(=O)O)C(c3ccc(Br)cc3)C1)C(=O)N=2 (configuration not stated) , same question.
95.9

`CS(=O)(=O)c1ccc([C@@H](CC2CCCC2)C(=O)Nc2nccs2)cc1` , same question.
95.5

`Nc1nc(NCCc2ccc(O)cc2)nc2nc(-c3ccco3)nn12` , same question.
95.1

`C#C[C@]1(O)CC[C@H]2[C@@H]3CCc4cc(OC5CCCC5)ccc4[C@H]3CC[C@@]21C` , same question.
98.4

* * *

System: Caco-2
Assay: cell viability relative to DMSO; higher = less toxic
Details: 72 h; 10 nM
Reported values of cell viability for individual entries
Report only the number, with the unit % understood.

Here is how some compounds turned out for cell viability.
Cc1cc(Cl)ccc1OCCCC(=O)NO	101
C[C@H](N)[C@H](O)c1ccc(O)c(O)c1	89.7
Cc1cc(C)nc(SCC(=O)Nc2ncc(Cc3cccc4ccccc34)s2)n1	101
NC[C@H]1O[C@H](O[C@H]2[C@H](O[C@@H]3O[C@H](CO)[C@@H](O)[C@H]3O)[C@@H](O)[C@H](N)C[C@@H]2N)[C@H](N)[C@@H](O)[C@@H]1O [ribostamycin-sulfate]	97.1
CCC(CC)CC1(C(=O)Nc2ccccc2SC(=O)C(C)C)CCCCC1	97.1
COc1cc2c(cc1OC)-c1cc3ccc(OC)c(OC)c3c[n+]1CC2 [palmatine-chloride]	99.1
CC1(CN2CCC(n3c(=O)[nH]c4ccccc43)CC2)OCc2ccccc2-n2cccc21 (stereo unspecified) [zaldaride]	91.6
Cc1cc(-c2nc(-c3ccc(OC(F)(F)F)cc3)no2)nn1Cc1ccnc(N2CCN(C3CC3)CC2)c1	99

What is its cell viability for Caco-2? Entry: `C#CC[C@H](c1nc2cc(Cl)ccc2c(=O)n1Nc1ccccc1)N(CCCN)C(=O)c1cccc(Cl)c1F`
96.6

`C[C@H]1C[C@H]2[C@@H]3CCC4=CC(=O)C=C[C@]4(C)[C@H]3C(=O)C[C@]2(C)[C@@]1(O)C(=O)CO` , same question.
91.1

`CCc1cnn2c(NCc3ccc[n+]([O-])c3)cc(N3CCCC[C@H]3CCO)nc12` , same question.
77.9

`c1ccc(CNc2ncnc3[nH]cnc23)cc1` , same question.
107

`Cn1c(NC[C@@H](N)Cc2ccccc2)nc(-c2ccncc2)c(-c2ccc3ccccc3c2)c1=O` , same question.
87.9

`CCn1c(=O)n(C2=C(CO)CN(CC3CCCCCCC3)CC2)c2ccccc21` , same question.
89.9

`Cn1c(Nc2ccc(C(F)(F)F)cc2)nc2cc(Oc3ccnc(-c4ncc(C(F)(F)F)[nH]4)c3)ccc21` , same question.
98.3

Cc1ccc(OC[C@@H](O)[C@H](C)NC(C)C)c2c1CCC2 (racemic) , same question.
103

`N=C(N)S/C=C\C(=O)O` , same question.
96
